Data credit: patent US20230310428A1

TARGET SYSTEM: various mutants of kinase EGFR (BaF3 cell lines stably transfected with kinase) (Homo sapiens, UniProt P00533, T790M/C797S, form not given)
Construct: other: BaF3 cells stably transfected with EGFR Δ19Del/T790M/C797S; MTS, 48; other: BaF3 cell line stably transfected with EGFR Δ19Del/T790M/C7
Sequence (P00533 with tags, fused parts or gaps DEL746-750/T790M/C797S, form open): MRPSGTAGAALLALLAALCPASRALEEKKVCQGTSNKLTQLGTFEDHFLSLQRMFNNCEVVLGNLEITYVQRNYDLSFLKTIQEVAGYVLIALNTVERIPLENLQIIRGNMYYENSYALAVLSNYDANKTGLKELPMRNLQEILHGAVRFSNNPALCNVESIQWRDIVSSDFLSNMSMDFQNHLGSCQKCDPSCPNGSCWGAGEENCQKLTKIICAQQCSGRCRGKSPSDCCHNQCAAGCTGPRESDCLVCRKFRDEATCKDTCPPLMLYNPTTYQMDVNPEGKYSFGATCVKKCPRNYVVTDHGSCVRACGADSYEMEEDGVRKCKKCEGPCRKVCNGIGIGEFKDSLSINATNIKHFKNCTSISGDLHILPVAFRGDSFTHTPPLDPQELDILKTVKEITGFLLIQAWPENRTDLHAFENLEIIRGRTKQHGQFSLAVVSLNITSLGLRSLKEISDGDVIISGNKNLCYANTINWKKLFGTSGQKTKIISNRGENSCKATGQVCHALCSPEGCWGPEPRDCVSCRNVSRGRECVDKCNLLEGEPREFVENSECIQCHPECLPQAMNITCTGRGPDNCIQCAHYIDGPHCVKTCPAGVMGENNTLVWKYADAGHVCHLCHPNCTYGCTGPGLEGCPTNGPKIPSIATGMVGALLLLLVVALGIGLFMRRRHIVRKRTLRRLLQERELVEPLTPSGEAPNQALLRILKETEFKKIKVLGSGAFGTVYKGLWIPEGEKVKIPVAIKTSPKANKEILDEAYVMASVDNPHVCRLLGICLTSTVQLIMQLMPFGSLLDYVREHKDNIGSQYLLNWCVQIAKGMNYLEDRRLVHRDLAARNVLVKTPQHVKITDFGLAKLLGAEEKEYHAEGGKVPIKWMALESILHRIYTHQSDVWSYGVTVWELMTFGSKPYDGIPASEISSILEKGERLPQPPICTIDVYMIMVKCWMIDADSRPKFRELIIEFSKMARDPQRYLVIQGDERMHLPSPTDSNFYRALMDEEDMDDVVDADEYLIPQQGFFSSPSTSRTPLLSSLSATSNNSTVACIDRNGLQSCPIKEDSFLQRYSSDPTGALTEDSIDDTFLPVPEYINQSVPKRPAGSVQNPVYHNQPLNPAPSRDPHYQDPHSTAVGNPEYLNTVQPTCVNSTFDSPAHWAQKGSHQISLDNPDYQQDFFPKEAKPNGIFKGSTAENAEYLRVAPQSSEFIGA
METHOD DESCRIPTION: Growth inhibitory activity of compounds on BaF3 cell lines stably transfected with kinase (MTS, 48 h)
Format: cell-based
CONDITION PARAMETERS: BaF3 cell line stably transfected with EGFR Δ19Del/T790M/C797S, read-out: Δ19Del/T790M/ C797S growth inhibitory activity IC50
EXPERIMENTAL ENDPOINT: IC50

Known IC50 results, listed for orientation:
# COMPOUND, EXPERIMENTAL ENDPOINT, RESULT VALUE
records = [
    ("COc1cc(N2CCC(N3CCN(C)CC3)CC2)ccc1Nc1nc(Nc2ccc3nccnc3c2N(C)S(C)(=O)=O)c2occc2n1", "IC50", "0.5 to 2.5 µM"),
    ("COc1ccc(N2CCC(O)CC2)cc1Nc1ncc(Cl)c(Nc2ccc3nccnc3c2N(C)S(C)(=O)=O)n1", "IC50", "≤ 0.05 µM"),
    ("COc1cc(N2CCC(N3CCN(C)CC3)CC2)ccc1Nc1ncc(Br)c(Nc2ccc3nccnc3c2NS(C)(=O)=O)n1", "IC50", "0.05 to 0.5 µM"),
    ("CCc1cc(Nc2nc(Nc3ccc4nccnc4c3N(C)S(C)(=O)=O)c3cc[nH]c3n2)c(OC)nc1N1CCC(N2CCN(C)CC2)CC1", "IC50", "≤ 0.05 µM"),
    ("CCc1cc(Nc2nc(Nc3ccc4nccnc4c3N(C)S(C)(=O)=O)c3sccc3n2)c(OC(F)(F)F)cc1N1CCC(N2CCN(C)CC2)CC1", "IC50", "0.05 to 0.5 µM"),
]

// each compound listed below needs its IC50
1. CCc1cc(Nc2ncc(Br)c(Nc3ccc4nccnc4c3N(C)S(C)(=O)=O)n2)c(OC)cc1N1CCC2(CC1)CC(N(C)C)C2
2. COc1ccc(N2CCC(O)CC2)cc1Nc1ncc(C(C)C)c(Nc2ccc3nccnc3c2N(C)S(C)(=O)=O)n1
3. COc1ccc(N2CCC(O)CC2)cc1Nc1ncc(Cl)c(Nc2ccc3nccnc3c2N(C2CC2)S(C)(=O)=O)n1
4. CCOc1cnc(Nc2cc(CC)c(N3CCC(N4CCN(C)CC4)CC3)cc2OC)nc1Nc1ccc2nccnc2c1N(C)S(C)(=O)=O
5. COc1cc(N2CCC(N3CCN(C)CC3)CC2)c(CC2CC2)cc1Nc1nc(Nc2ccc3nccnc3c2N(C)S(C)(=O)=O)c2occc2n1
6. CCc1cc(Nc2ncc(C)c(Nc3ccc4nccnc4c3N(C)S(C)(=O)=O)n2)c(OC)cc1N1CCN(C)CC1
7. CCc1cc(Nc2ncc(Br)c(Nc3ccc4nccnc4c3NS(C)(=O)=O)n2)c(OC)nc1N1CCC(N2CCN(C)CC2)CC1

Result ::
["≤ 0.05 µM", "0.05 to 0.5 µM", "≤ 0.05 µM", "0.05 to 0.5 µM", "0.05 to 0.5 µM", "≤ 0.05 µM", "≤ 0.05 µM"]

I'm hoping you can list IC50 for every compound here, please.
1. CCc1cc(Nc2ncc(C(C)C)c(Nc3ccc4nccnc4c3N(C)S(C)(=O)=O)n2)c(OC)nc1N1CCC(N2CCN(C)CC2)CC1
2. COc1cc(N2CCC(N3CCN(C)CC3)CC2)ccc1Nc1ncc(C)c(Nc2ccc3nccnc3c2N(C)S(C)(=O)=O)n1
3. COc1ccc(N2CCC(O)CC2)cc1Nc1ncc(Cl)c(Nc2ccc3nccnc3c2N(C)S(=O)(=O)C(F)(F)F)n1

Result ::
1: 0.05 to 0.5 µM; 2: ≤ 0.05 µM; 3: ≤ 0.05 µM

# return IC50 for each item in the list
1. CCOc1cnc(Nc2cc(CC)c(N3CCC(N4CCN(C)CC4)CC3)nc2OC)nc1Nc1ccc2nccnc2c1N(C)S(C)(=O)=O
2. COc1ccc(N2CCC(C#N)CC2)cc1Nc1ncc(Br)c(Nc2ccc3nccnc3c2N(C)S(C)(=O)=O)n1
3. COc1nc(N2CCC(N3CCN(C)CC3)CC2)ccc1Nc1ncc(Br)c(Nc2ccc3nccnc3c2N(C2CC2)S(C)(=O)=O)n1
4. CCc1cc(Nc2ncc(Br)c(Nc3ccc4nccnc4c3NS(C)(=O)=O)n2)c(OC)cc1C(=O)N1CCC(N2CCN(C)CC2)CC1
5. COc1cc(N2CCC(N(C)C)CC2)c(C)cc1Nc1ncc(Br)c(Nc2ccc3nccnc3c2N(C2CC2)S(C)(=O)=O)n1

Result ::
["0.5 to 2.5 µM", "0.05 to 0.5 µM", "0.05 to 0.5 µM", "0.5 to 2.5 µM", "≤ 0.05 µM"]

Kindly give each listed record's IC50.
1. CCc1cc(Nc2ncc(C(C)C)c(Nc3ccc4nccnc4c3N(C)S(C)(=O)=O)n2)c(OC)cc1N1CCC(N2CCN(C)CC2)CC1
2. CN1CCN(C2CCN(c3c(F)cc(Nc4ncc(Cl)c(Nc5ccc6nccnc6c5N(C)S(C)(=O)=O)n4)cc3F)CC2)CC1

Result ::
1: 0.05 to 0.5 µM; 2: ≤ 0.05 µM
